MEASURED_ON: HIV-1 reverse transcriptase (Human immunodeficiency virus 1, UniProt P03366;P03366 P03366:600-1159,P03366:600-1039)
TEST_DETAILS: inhibition; Ki', RNA-dependent DNA polymerase activity
CONDITION_DESCRIPTION: tags: expressed in E. coli, purified per Davies et al. 1991; label: 5'-32P; internal loop variant (AA opposite A)
MEASUREMENT_LABEL: pKi
// pKi is dimensionless: -log10 of concentration (M)

Returns the measured pKi for the input binder. Input: RT36 (ssDNA) DNA: ATCCGCCTGATTAGCGATACTAAGCTCTTAGTTGATGCGCGGTCAAAATTTAAGCTACTTGAGCAAAATCACCTGCAGGGG 8.19
